biological target: T1, hTNFRSF12 amino acids a28-80-S40R-hIgG1-Fc (human); assay: ELISA: TWEAKR-Fc construct coated at 62 ng/ml, biotinylated IgG titrated from 100 nM; token + marks IC50 of 1 to […] pM
T1 construct: TWEAKR-Fc mutein, coated on the ELISA plate; also called TPP-1987
READOUT NAME: binding result

INSERT INTO measurements (binder, val) VALUES
  ('P3G5(TPP-2195) (antibody, mouse IgG2a, kappa, V domains shown, murine IgG2a; variable domains from WO2009/140177 with a murine IgG2 constant region added; biotinylated IgG in the ELISA) VH: QVQLQQSGPEVVRPGVSVKISCKGSGYTFTDYGIHWVKQSHAKSLEWIGVISTYNGYTNYNQKFKGKATMTVDKSSSTAYMELARLTSEDSAIYYCARAYYGNLYYAMDYWGQGTSVTVSS VL: DIVLTQSPASLAVSLGQRATISCRANKSVSTSSYSYMHWYQQKPGQPPKLLIKYASNLESGVPARFSGSGSGTDFILNIHPVEEEDAATYYCQHSRELPFTFGSGTKLEIKR', 'binds'),
  ('TPP-2090 (antibody, V domains shown, human IgG1; also called anti-TWEAKR AK-1) VH: EVQLLESGGGLVQPGGSLRLSCAASGFTFSPYPMIWVRQAPGKGLEWVSYISPSGGSTHYADSVKGRFTISRDNSKNTLYLQMNSLRAEDTAVYYCARGGDTYFDYFDYWGQGTLVTVSS VL: DIQMTQSPSSLSASVGDRVTITCRASQSISGYLNWYQQKPGKAPKLLIYQASSLQSGVPSRFSGSGSGTDFTLTISSLQPEDFATYYCQQSYTSPFITFGQGTKVEIKR', 'binds'),
  ('P4A8(TPP-1324) (antibody, human IgG1, kappa, V domains shown, human IgG1; variable domains from WO2009/140177 with a human IgG1 constant region added; biotinylated IgG in the ELISA) VH: QVQLVQSGAEVKKPGASVKVSCKGSGYTFTDYGMHWVRQAPGQGLEWMGVISTYNGYTNYNQKFKGRVTMTVDKSTSTAYMELRSLRSDDTAVYYCARAYYGNLYYAMDYWGQGTLVTVSS VL: DIVLTQSPASLAVSLGQRATISCRASKSVSTSSYSYMHWYQQKPGQPPKLLIKYASNLESGVPARFSGSGSGTDFSLNIHPMEEDDTAMYFCQHSRELPFTFGGGTKLEIKR', 'binds');

Hey, just so you know, these numbers are from patent US20160346402A1.
